# system tested: Neu5Ac(a2-3)Gal(b1-4)GlcNAc(b1-3)Gal(b1-4)GlcNAc(b1-2)Man(a1-3)[Neu5Ac(a2-3)Gal(b1-4)GlcNAc(b1-3)Gal(b1-4)GlcNAc(b1-2)Man(a1-6)]Man(b1-4)GlcNAc(b1-4)GlcNAc
# method notes: glycan array binding signal (z-score within array); higher = stronger binding
# applied conditions: glycan notation: IUPAC condensed, linker removed
The full list was thinned out, with the strongest signals kept by preference.
glycan array binding signal (z-score) for assorted binders
quantity: glycan array binding signal (z-score)

{"binder": "BIp1-His (Cryptococcus neoformans) (protein) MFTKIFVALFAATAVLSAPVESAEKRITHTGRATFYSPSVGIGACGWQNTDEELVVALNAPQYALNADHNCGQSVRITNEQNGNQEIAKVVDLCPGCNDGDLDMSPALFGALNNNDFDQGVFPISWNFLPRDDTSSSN", "quantity": "glycan array binding signal (z-score)", "result value": -0.11}
{"binder": "CBM13 2a (Mycobacterium tuberculosum), P64849 (protein) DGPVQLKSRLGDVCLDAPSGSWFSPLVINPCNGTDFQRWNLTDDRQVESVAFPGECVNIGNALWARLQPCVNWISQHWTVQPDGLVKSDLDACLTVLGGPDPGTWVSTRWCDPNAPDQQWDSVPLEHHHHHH", "quantity": "glycan array binding signal (z-score)", "result value": 7.02}
{"binder": "Pbx1CASH domain (Cryptococcus neoformans) (protein) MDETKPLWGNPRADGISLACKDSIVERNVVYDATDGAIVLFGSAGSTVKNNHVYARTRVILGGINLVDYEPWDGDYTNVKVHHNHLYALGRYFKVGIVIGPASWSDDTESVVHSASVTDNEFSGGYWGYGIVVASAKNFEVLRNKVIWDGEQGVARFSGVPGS", "quantity": "glycan array binding signal (z-score)", "result value": 2.42}
{"binder": "FimA-N2 (Actinomyces oris) (protein) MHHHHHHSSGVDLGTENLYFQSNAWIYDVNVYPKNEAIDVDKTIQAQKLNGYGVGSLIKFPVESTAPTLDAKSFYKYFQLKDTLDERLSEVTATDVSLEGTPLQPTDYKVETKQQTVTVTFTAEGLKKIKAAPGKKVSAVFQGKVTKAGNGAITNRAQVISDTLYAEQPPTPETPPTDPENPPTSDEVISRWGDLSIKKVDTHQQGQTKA", "quantity": "glycan array binding signal (z-score)", "result value": -0.355}
{"binder": "Pwp5 ND (Candida glabrata) (protein) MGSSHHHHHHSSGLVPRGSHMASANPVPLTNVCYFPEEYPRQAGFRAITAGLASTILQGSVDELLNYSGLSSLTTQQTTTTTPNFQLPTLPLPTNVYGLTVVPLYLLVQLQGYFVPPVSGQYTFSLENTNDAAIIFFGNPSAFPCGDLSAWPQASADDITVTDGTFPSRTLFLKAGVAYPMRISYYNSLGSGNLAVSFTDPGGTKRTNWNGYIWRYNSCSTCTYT", "quantity": "glycan array binding signal (z-score)", "result value": -0.247}
